TEST DESCRIPTION: Displacement of [3H]diazepam from GABAA/BzR in rat brain membrane
Format: cell membranes
MEASUREMENT LABEL: pIC50
Answers are plain numbers.

c1ccc2c(c1)[nH]c1cnccc12    5.79
Cc1ccc2[nH]cc3c(=O)n(-c4csc(C)c4)nc-3c2c1    9.27
O=C1C2C=Nc3ccccc3C2=NN1c1ccc(Cl)cc1 (configuration not stated)    8.94
O=[N+]([O-])c1cc2c3ccccc3nc-2c[nH]1    6.9
O=[N+]([O-])c1ccc2[nH]c3c[nH]c4c5ccccc5nc-4c3c2c1    8.4
Cn1c2ccccc2c2c1ccc1c3ccccc3n(C)c12    5.72

For each listed entry, give its pIC50.
1. COc1cc2c(cn1)[nH]c1ccccc12
2. COc1cccc2[nH]c3c4c5ccccc5nc-4c[nH]c3c12
3. Brc1cccc2c1[nH]c1c3c4ccccc4nc-3c[nH]c12

Ans.
[6.91, 6.6, 7.55]

For each listed entry, give its pIC50.
1. Oc1cc2c3ccccc3nc-2c[nH]1
2. Cc1cc(-n2nc3c4ccccc4n(C)cc-3c2=O)cs1
3. c1ccc2c(c1)[nH]c1c2ncc2[nH]c3ccccc3c21

Ans.
5.4
6.52
8.4

* * *

Give measured pIC50 for each item. Keep answers brief.
TEST DESCRIPTION: Displacement of [3H]diazepam from GABAA/BzR in rat brain membrane
Type: cell membranes
Answers are plain numbers.

# count of solved cases: 5
Oc1ccc2c(c1)[nH]c1c3c4ccccc4nc-3c[nH]c12    8.22
CCc1nc2c3ccccc3[nH]c2c2c1[nH]c1ccccc12    6.6
O=[N+]([O-])c1ccc2[nH]c3c[nH]c4c5ccc(Cl)cc5nc-4c3c2c1    6.9
Clc1cccc2[nH]c3c4c5ccccc5nc-4c[nH]c3c12    6.15
Oc1ccc2[nH]c3c4c5ccccc5nc-4c[nH]c3c2c1    6.94

For each listed entry, give its pIC50.
1. CCOC(=O)c1cc2c(cn1)oc1ccccc12
2. Fc1ccc2c(c1)[nH]c1c3c4ccccc4nc-3c[nH]c12
3. Cc1cc(-n2nc3c4cc(Cl)ccc4[nH]cc-3c2=O)cs1
4. Brc1ccc2[nH]c3c4c5ccccc5nc-4c[nH]c3c2c1
5. O=[N+]([O-])c1ccc2[nH]c3c[nH]c4c5cc(Cl)ccc5nc-4c3c2c1
6. COc1ccc2c(c1)[nH]c1c2ncc2[nH]c3ccccc3c21

Ans.
5.04
8.15
9.06
6.12
5.92
8.1

* * *

TEST DESCRIPTION: Displacement of [3H]diazepam from GABAA/BzR in rat brain membrane
Assay type: cell membranes
MEASUREMENT LABEL: pIC50
Give bare numbers.

# count of solved cases: 4
Clc1ccc2[nH]c3c4c5ccccc5nc-4c[nH]c3c2c1    5.67
Nc1ccc2[nH]c3c[nH]c4c5ccccc5nc-4c3c2c1    7.36
c1ccc(Oc2ccc3[nH]c4c(ncc5[nH]c6ccccc6c54)c3c2)cc1    5.8
O=c1c2cnc3ccccc3c2[nH]n1-c1csc(Cl)c1    8.99

For each listed entry, give its pIC50.
1. O=c1c2cnc3ccccc3c2[nH]n1-c1ccsc1
2. Fc1cccc2c1[nH]c1c3c4ccccc4nc-3c[nH]c12
3. COc1ccc2[nH]c3c4c5ccccc5nc-4c[nH]c3c2c1

Ans.
1. 8.99
2. 7.92
3. 6.05
